Record form. Attribute: IC50. Fill in for each entry.
measurement target: PI3Kγ (Homo sapiens (Human))
Sequence (P48736 whole entry, canonical isoform): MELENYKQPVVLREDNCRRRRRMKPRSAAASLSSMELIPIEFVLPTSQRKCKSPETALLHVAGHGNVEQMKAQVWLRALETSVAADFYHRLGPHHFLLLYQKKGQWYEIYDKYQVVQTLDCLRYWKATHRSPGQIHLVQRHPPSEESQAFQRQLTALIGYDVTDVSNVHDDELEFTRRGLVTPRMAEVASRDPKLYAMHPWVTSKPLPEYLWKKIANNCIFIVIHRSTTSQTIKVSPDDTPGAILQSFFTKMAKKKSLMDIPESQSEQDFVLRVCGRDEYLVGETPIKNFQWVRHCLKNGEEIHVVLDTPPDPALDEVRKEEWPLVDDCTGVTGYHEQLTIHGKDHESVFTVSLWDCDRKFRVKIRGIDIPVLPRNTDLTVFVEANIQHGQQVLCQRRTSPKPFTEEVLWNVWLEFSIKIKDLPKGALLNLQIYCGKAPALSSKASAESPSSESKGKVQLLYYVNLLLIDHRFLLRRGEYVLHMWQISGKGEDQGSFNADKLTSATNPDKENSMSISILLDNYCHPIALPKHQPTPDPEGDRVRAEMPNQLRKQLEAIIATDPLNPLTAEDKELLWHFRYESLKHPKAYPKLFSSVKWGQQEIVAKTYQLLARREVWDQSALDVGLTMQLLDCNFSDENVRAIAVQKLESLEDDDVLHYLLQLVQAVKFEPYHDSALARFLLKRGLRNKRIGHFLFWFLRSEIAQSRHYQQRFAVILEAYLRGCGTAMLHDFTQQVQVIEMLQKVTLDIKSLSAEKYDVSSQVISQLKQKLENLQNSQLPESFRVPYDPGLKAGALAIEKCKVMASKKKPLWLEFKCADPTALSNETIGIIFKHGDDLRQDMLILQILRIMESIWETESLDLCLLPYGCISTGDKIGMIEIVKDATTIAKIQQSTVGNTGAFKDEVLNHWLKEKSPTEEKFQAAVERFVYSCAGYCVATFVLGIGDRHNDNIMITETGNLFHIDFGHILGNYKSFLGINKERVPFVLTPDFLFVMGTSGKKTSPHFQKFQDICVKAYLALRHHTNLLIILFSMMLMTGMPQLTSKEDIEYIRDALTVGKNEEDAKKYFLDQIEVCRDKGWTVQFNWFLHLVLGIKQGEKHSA
Sequence (Q8WYR1 whole entry partner, canonical isoform): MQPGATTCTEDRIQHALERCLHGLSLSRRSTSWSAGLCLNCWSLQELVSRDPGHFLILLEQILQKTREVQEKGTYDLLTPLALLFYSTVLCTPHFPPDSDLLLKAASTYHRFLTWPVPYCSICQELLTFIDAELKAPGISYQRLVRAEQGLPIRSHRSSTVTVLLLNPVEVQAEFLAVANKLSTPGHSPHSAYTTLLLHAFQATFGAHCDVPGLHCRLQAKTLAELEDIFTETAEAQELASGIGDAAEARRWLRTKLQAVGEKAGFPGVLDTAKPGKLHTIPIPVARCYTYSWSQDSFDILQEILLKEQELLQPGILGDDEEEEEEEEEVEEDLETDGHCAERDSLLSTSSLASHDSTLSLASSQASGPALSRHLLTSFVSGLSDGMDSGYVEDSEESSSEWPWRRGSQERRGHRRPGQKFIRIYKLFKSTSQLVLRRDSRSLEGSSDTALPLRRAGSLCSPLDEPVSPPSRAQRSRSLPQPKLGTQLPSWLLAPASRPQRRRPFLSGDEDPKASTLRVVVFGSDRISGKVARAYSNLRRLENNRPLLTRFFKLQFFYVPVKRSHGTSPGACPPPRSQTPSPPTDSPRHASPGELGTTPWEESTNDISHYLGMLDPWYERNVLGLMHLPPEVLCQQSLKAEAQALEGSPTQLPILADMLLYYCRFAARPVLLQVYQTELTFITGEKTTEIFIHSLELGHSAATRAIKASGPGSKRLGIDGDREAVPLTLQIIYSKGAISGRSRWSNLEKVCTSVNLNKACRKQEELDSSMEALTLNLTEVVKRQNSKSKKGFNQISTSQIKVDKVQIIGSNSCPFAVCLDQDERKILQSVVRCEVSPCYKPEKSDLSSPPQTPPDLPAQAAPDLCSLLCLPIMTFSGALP
measurement notes: TR-FRET enzymatic assay of PI3K isoforms (PI3Kγ)
Format: biochemical
measurement parameters: TR-FRET, 2×Km ATP, 2 μM PIP2, PI3Kγ at 2 nM, incubated for 30 minutes at 25° C.; read-out: γ IC50
Quick reminder: number only, in µM, skip the unit.

Problem: In one line, give reported IC50 of the entry `C[C@H](Oc1ncnc2scnc12)c1nc2cccc(Cl)c2c(=O)n1-c1cccc(NC(=O)NCC2OCCO2)c1` .
Result: 3.1

Problem: For the compound `CCNC(=O)Nc1cccc(-n2c([C@H](C)Nc3ncnn4ccnc34)nc3cccc(Cl)c3c2=O)c1` , give its reported IC50.
Result: 2

Problem: Give recorded IC50. `C[C@H](Nc1nc(N)nc(N)c1C#N)c1nc2c(Cl)cc(F)cc2c(=O)n1-c1cccc(C(N)=O)c1`
Result: 0.44
